# test protocol: clinical
# condition label: human, in vivo, po, median Tmax, healthy volunteers; once daily
experimental readout: Tmax

C[C@@H]1CCC[C@H](n2cnc(-c3cc(Cl)ccc3-n3cc(Cl)nn3)cc2=O)c2cc(ccn2)-c2c(cnn2C(F)F)NC1=O
2 to 3 h

* * *

# test protocol: clinical
# condition label: human, in vivo, po, Day 4, 25 mg and 100 mg twice daily
experimental readout: Tmax at 96 h

C[C@@H]1CCC[C@H](n2cnc(-c3cc(Cl)ccc3-n3cc(Cl)nn3)cc2=O)c2cc(ccn2)-c2c(cnn2C(F)F)NC1=O
~2 h

* * *

# test protocol: clinical
# condition label: human, in vivo, po, median Tmax, healthy volunteers; twice daily
experimental readout: Tmax

C[C@@H]1CCC[C@H](n2cnc(-c3cc(Cl)ccc3-n3cc(Cl)nn3)cc2=O)c2cc(ccn2)-c2c(cnn2C(F)F)NC1=O
~3 h
